From: patent US7605227B2

- System: T cell lines against a natural (non-mutated) epitope (SSX-241-49)
- method summary: Cross-reactivity and functional avidity: IFN-gamma from T cell lines against natural SSX-2 41-49 epitope;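 note: peptide analogs tested ex vivo with competent APCs, IFN-gamma in supernatant measured by ELISA, readouts include minimal triggering concentration, peak effect and concentration at peak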
- Format: cell-based, HHD transgenic mice
- details: IFN-gamma from T cell line raised against native SSX-2 41-49; native = 1, lower = more active
Below: a set of entries, each annotated with reported Cross-reactivity and fct avidity (native to analogs)*.
Give your answer as a number; write no unit.

| compound | numeric readout |
| --- | --- |
| CC[C@H](C)[C@H](NC(=O)[C@H](Cc1ccc(O)cc1)NC(=O)[C@H](Cc1ccccc1)NC(=O)[C@@H](NC(=O)[C@H](CCCCN)NC(=O)[C@H](CCC(=O)O)NC(=O)[C@H](CO)NC(=O)[C@@H](NC(=O)[C@@H](N)Cc1ccccc1)C(C)C)[C@@H](C)CC)C(=O)O [SSX2 41-49 (K41F, A42V, V49I)] | 0.3 |

Endpoint output: Cross-reactivity and fct avidity (native to analogs)* of CC[C@H](C)[C@H](NC(=O)[C@H](CCCCN)NC(=O)[C@H](CCC(=O)O)NC(=O)[C@H](CO)NC(=O)[C@@H](NC(=O)[C@@H](N)Cc1ccc(O)cc1)C(C)C)C(=O)N[C@@H](Cc1ccccc1)C(=O)N[C@@H](Cc1ccc(O)cc1)C(=O)N[C@H](C(=O)O)C(C)C [SSX2 41-49 (K41Y, A42V)] . Value? 0.1
